- ASSAYED_TARGET: human melanocortin 4 receptor (human, UniProt P32245 1-332)
- Sequence (P32245 whole entry): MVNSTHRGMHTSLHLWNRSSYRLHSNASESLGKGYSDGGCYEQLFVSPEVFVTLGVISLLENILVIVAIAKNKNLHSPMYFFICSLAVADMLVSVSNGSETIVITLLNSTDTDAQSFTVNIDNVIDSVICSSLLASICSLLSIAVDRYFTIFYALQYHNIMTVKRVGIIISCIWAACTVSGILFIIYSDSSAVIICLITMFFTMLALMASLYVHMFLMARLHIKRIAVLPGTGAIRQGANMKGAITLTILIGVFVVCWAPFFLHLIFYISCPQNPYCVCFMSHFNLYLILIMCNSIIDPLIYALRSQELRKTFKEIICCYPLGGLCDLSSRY
- PROTOCOL_DETAILS: cell-based or functional assay
Positions of bridges follow the written chain, without caps; N, C: chain ends. Non-standard residues stand in square brackets, D forms with d. Cit = NC(=O)NCCC[C@H](N)C(=O)O
MEASUREMENT_KIND: MC4R cAMP EC50 (nM)
Give bare numbers, in nM.

Prompt line: Item cyclo(CKH[dF][Cit]WCKH[dF][Cit]W) (disulfide 1-7; SMILES NCCCC[C@@H]1NC(=O)[C@@H]2CSSC[C@H](NC(=O)[C@H](Cc3c[nH]c4ccccc34)NC(=O)[C@H](CCCNC(N)=O)NC(=O)[C@@H](Cc3ccccc3)NC(=O)[C@H](Cc3c[nH]cn3)NC1=O)C(=O)N[C@@H](CCCCN)C(=O)N[C@@H](Cc1c[nH]cn1)C(=O)N[C@H](Cc1ccccc1)C(=O)N[C@@H](CCCNC(N)=O)C(=O)N[C@@H](Cc1c[nH]c3ccccc13)C(=O)N2, also called c[c[Cys-Lys-His-D-Phe-Cit-Trp-Cys]-Lys-His-D-Phe-Cit-Trp]) [Chem. 55] has what recorded MC4R cAMP EC50?
Response line: 0.1

The measurements presented in this section are drawn from patent US20200223889A1.
